Source listed as patent US20190225691A1.

subjectOfTest: T1, human PD-L1 ECD-His (human, UniProt Q9NZQ7 19-238)
T1 construct: extracellular domain; Analyte in all SPR and BLI runs; also called hPD-L1_ECD-His; hPD-L1 ECD-His; not shown: His tag
assayComment: SPR, 25 C, antibody captured by anti-human IgG Fc, hPD-L1_ECD-His analyte, 1:1 fit
testReadout: Kd (nM)

| binder | dataValue |
| --- | --- |
| PL8 (full-length, N297A mutant human IgG1) (antibody, V domains shown) VH: EVQLVQSGAEVKKPGSSVKVSCKASGGTFSSYAISWVRQAPGQGLEWMGRIIPIFGTANYAQKFQGRVTITADESTSTAYMELSSLRSEDTAVYYCAREGVLDAFDIWGQGTMVTVSS VL: LSSELTQDPAVSVALGQTVRITCQGDSLRSYYVSWYQQKPGQAPVLVLYGKNNRPSGIPDRFSGSSSGSTASLTITGAQAEDEADYYCNSRDSTGNLLRVFGGGTKLTVLG | 8.85 |
